target: κ opioid receptor (Homo sapiens); experiment: κ-opioid receptor [35S]GTPγS functional assay, U-2 OS cells; type: biochemical; parameters: expressed in transfected cells; host or cells: U-2 OS (in-house membranes); settings: U-2 OS cells; relative to U69,593; read-out: GTPγS κ Emax
Sequence (P41145 whole entry): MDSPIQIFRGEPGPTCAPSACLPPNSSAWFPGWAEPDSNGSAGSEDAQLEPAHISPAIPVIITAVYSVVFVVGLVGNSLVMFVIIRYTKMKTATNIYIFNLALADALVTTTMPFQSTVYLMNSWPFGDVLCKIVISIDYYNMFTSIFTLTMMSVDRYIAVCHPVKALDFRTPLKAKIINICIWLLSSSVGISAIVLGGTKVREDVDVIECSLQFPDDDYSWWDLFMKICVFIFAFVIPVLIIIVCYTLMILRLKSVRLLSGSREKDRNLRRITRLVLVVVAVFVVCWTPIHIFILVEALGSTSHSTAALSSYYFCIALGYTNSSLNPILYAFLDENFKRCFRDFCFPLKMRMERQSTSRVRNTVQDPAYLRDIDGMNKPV
ENDPOINT_LABEL: Emax
Please answer in the form of a number followed by its unit of measurement.

Tell me the measured Emax of `CN1CC[C@@]2(C)c3cc(O)ccc3C[C@@H]1[C@@H]2NC(=O)Nc1nc2cc(F)ccc2s1` , please.
48%

# iterate: `CN1CC[C@@]2(C)c3cc(O)ccc3C[C@@H]1[C@@H]2NCCc1ccc(Cl)c(Cl)c1`
95.3%

Same for `C[C@]12CCN(CC3CC3)[C@H](Cc3ccc(O)cc31)[C@H]2NCC1CCNCC1`
-1%

Would you mind doing `CN(C(=O)c1ccccc1)[C@@H]1[C@H]2Cc3ccc(O)cc3[C@]1(C)CCN2CC1CC1` as well?
76%

Thanks! And `CN(C(=O)Nc1ccc(C(C)(C)C)cc1)[C@@H]1[C@H]2Cc3ccc(O)cc3[C@]1(C)CCN2CC1CC1` ?
42%

Another compound to check: `C[C@]12CCN(CC3CC3)[C@H](Cc3ccc(O)cc31)[C@H]2NC(=O)c1ccsc1`
99.2%

Now the compound `CN1CC[C@@]2(C)c3cc(O)ccc3C[C@@H]1[C@@H]2N(C)C(=O)c1ccsc1`
77.3%

Can you check `CN1CC[C@@]2(C)c3cc(O)ccc3C[C@@H]1[C@@H]2N(C)C(=O)C1CCCCC1` next?
18.3%

###

target: μ-opioid receptor (Homo sapiens, UniProt P35372); assay: μ-opioid receptor [35S]GTPγS functional assay, HEK-293 or CHO cells
Sequence (P35372 whole entry, species assumed): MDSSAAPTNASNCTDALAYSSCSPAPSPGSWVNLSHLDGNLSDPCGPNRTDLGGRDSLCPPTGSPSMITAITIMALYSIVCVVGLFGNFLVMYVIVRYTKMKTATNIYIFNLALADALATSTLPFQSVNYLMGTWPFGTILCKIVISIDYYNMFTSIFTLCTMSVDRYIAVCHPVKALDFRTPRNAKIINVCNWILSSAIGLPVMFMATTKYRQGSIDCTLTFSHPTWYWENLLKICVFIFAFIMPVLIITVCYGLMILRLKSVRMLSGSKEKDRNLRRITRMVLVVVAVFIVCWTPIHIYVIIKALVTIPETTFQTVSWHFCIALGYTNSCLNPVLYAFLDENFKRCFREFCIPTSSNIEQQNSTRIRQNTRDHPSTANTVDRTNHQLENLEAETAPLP
Task for the reader: assign each of the following compounds its reported pEC50.
FYI, pEC50 means -log10 of a concentration in mol per litre.

Fill blank: measured pEC50 of the compound `CN1CC[C@]2(C)c3cc(O)ccc3CC1[C@@H]2COc1cccc(C(=O)O)c1` is ____.
5.51

Entry `CN1CC[C@]2(C)c3cc(O)ccc3CC1[C@@H]2CC(=O)N1CCC[C@H]1C(=O)O` please
5.23

Try this compound next: `CN1CC[C@@]2(C)c3cc(O)ccc3C[C@@H]1[C@@H]2NCCc1ccc(S(N)(=O)=O)cc1`
7.16

Another compound to look at: `CN1CC[C@]2(C)c3cc(O)ccc3CC1[C@@H]2COc1cncc(C(=O)O)c1`
5.44

Same question for `COc1ccc2c(c1)[C@@]1(C)CCN(C)C(C2)[C@@]1(O)c1cccc(C#N)c1` please.
5.22

// query: `CN1CC[C@]2(C)c3cc(O)ccc3C[C@H]1[C@@H]2NCCc1ccc(S(N)(=O)=O)cc1`
5.67

Another compound: `CN1CC[C@]2(C)c3cc(O)ccc3C[C@@H]1[C@H]2N(C)C(=O)c1cccc(C(=O)O)c1`
5.05

###

target: μ-opioid receptor (Homo sapiens); test: μ-opioid receptor [35S]GTPγS functional assay, HEK-293 or CHO cells
ENDPOINT_LABEL: EC50 (µM)
Numeric answer only, unit µM assumed.

Data request, read-out EC50, for CN1CC[C@]2(C)c3cc(O)ccc3CC1C2N(C)C(=O)Nc1ccc(C(=O)O)cc1 (stereo in doubt) [Compound 46]
13.4

Same for CN(C(=O)Nc1ccc(C#N)cc1)C1C2Cc3ccc(O)cc3[C@@]1(C)CCN2CCc1ccccc1 (stereo in doubt)
0.00529

Moving on to `COC(=O)c1cccc([C@]2(O)C3Cc4ccc(OC)cc4[C@@]2(C)CCN3C)c1`
7.45
